- condition set: in isobutanol, 303.15 K
reported metric: solubility (mole fraction)
Lab note: jot the number down without any unit.

INPUT: State the recorded solubility (mole fraction) for this entry: Cc1ccc(CO)cc1
OUTPUT: 0.513

---

- condition set: in isopropanol, 278.15 K
reported metric: solubility (mole fraction)

INPUT: Name the reported solubility (mole fraction) value associated with the molecule Cc1ccc(CO)cc1
OUTPUT: 0.248

---

- condition set: in ethanol, 298.15 K
reported metric: solubility (mole fraction)

INPUT: Quick one: solubility (mole fraction) of Cc1ccc(CO)cc1 ?
OUTPUT: 0.44

---

- condition set: in dichloromethane, 283.15 K
reported metric: solubility (mole fraction)
No unit in the answer, please; the number alone is enough.

INPUT: solubility (mole fraction) for Cc1ccc(CO)cc1 ?
OUTPUT: 0.429

---

- condition set: in isopropanol, 288.15 K
reported metric: solubility (mole fraction)
// no unit, no text: just the number

INPUT: Item under review: Cc1ccc(CO)cc1 . Reported solubility (mole fraction)?
OUTPUT: 0.33

---

- condition set: in ethyl acetate, 293.15 K
reported metric: solubility (mole fraction)
I only need the number, thanks.

INPUT: So what does the record say about solubility (mole fraction) for Cc1ccc(CO)cc1 ?
OUTPUT: 0.369

---

- condition set: in ethyl formate, 278.15 K
reported metric: solubility (mole fraction)
Could you keep your reply to the number by itself?

INPUT: Entry Cc1ccc(CO)cc1 has what solubility (mole fraction)?
OUTPUT: 0.152

---

- condition set: in isobutanol, 278.15 K
reported metric: solubility (mole fraction)
Kindly provide the number alone.

INPUT: Data request, read-out solubility (mole fraction), for Cc1ccc(CO)cc1
OUTPUT: 0.231

---

- condition set: in isobutanol, 288.15 K
reported metric: solubility (mole fraction)
Note: the reply should be a number with no unit written.

INPUT: State the recorded solubility (mole fraction) for this entry: Cc1ccc(CO)cc1
OUTPUT: 0.321

---

- condition set: in ethyl acetate, 288.15 K
reported metric: solubility (mole fraction)
Enter the number alone.

INPUT: # input compound: Cc1ccc(CO)cc1 ; wanted: its solubility (mole fraction)
OUTPUT: 0.308

---

- condition set: in ethanol, 293.15 K
reported metric: solubility (mole fraction)

INPUT: // lookup solubility (mole fraction) for Cc1ccc(CO)cc1
OUTPUT: 0.379

---

- condition set: in ethanol, 313.15 K
reported metric: solubility (mole fraction)
Keep it simple and answer with nothing but the number.

INPUT: Give the measured solubility (mole fraction) of Cc1ccc(CO)cc1 .
OUTPUT: 0.662

---

- condition set: in ethyl formate, 303.15 K
reported metric: solubility (mole fraction)
Form rule: numeric answer, no unit written next to it.

INPUT: Data request, read-out solubility (mole fraction), for Cc1ccc(CO)cc1
OUTPUT: 0.449

---

- condition set: in dichloromethane, 313.15 K
reported metric: solubility (mole fraction)
Lab note: write the figure by itself, no unit.

INPUT: Entry Cc1ccc(CO)cc1 : reported solubility (mole fraction) = ?
OUTPUT: 0.729

---

- condition set: in ethyl acetate, 308.15 K
reported metric: solubility (mole fraction)
Provide a numeric answer; units are not to be included.

INPUT: solubility (mole fraction) for Cc1ccc(CO)cc1 ?
OUTPUT: 0.587

---

- condition set: in n-propanol, 298.15 K
reported metric: solubility (mole fraction)
API doc: respond with a numeric literal and nothing else, no unit.

INPUT: Entry under review: Cc1ccc(CO)cc1 . Reported solubility (mole fraction)?
OUTPUT: 0.454

Where these numbers come from: BigSolDB 2.1
